System: RARa:RXR (NR concentration 270 nM, RXRa partner concentration 90 nM)
ASSAY_PROTOCOL: PBM binding z-score (relative to random genomic background probes); higher = stronger binding; sequences stand for … in GC…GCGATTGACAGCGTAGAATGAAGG
I'd be grateful if you could share measured PBM binding z-score for these entries.
// no unit string in output, number only

Data point: GCTGCTAGGTCAGATTGGTCAGCTAACGGGTACG ; PBM binding z-score = 0.855

Data point: TCTAGTTGGGCACGGAGGTCACACACGACGGGTA ; PBM binding z-score = 4.24

Data point: TGAATGAGGTTAAAGATCAGGGCACGTGGCGTCG ; PBM binding z-score = 3.3

Data point: AATGCAGGGTCACTAGGCCAGAGTAGGTACGAAT ; PBM binding z-score = 4.25
